Biological target: PDE2A (Rattus norvegicus)
Construct: Twenty μm-thick striatal sections were cut; from tissue; host or cells: rat brain, striatal sections
Sequence (Q01062 whole entry): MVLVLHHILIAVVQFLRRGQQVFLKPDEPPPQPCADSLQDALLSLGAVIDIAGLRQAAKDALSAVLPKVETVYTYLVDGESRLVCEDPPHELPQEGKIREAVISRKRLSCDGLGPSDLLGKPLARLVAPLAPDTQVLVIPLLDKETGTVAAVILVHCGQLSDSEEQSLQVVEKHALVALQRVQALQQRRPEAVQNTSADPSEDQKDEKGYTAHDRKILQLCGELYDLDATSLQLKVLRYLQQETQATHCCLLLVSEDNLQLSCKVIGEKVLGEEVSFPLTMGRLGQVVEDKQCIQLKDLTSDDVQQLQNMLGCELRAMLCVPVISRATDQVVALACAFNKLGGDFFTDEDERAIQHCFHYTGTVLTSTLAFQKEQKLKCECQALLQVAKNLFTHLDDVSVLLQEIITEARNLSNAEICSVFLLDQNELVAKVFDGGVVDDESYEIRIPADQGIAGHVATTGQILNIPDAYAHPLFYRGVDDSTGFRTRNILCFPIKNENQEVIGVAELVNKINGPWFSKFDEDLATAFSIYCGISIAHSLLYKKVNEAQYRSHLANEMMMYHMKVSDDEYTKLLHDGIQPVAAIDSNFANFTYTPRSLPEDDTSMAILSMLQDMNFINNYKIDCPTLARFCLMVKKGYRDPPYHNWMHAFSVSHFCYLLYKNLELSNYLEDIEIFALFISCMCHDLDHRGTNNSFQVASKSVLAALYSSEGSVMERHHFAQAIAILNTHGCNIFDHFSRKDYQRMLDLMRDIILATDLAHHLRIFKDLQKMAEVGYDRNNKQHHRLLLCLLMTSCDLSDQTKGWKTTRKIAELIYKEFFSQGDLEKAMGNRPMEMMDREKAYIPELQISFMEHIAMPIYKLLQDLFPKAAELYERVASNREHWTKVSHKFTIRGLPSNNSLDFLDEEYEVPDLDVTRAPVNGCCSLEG
Assay: PDE2 occupancy by test compounds, ex-vivo autoradiography with [3H]B-17a
Format: in vivo, Male Wistar rats
Conditions: route PO (oral), drug dose producing 50% receptor occupancy, read-out: PDE Occupancy ED50
The entries below are paired with their reported ED50.
Just the number please, in mg/kg, no unit attached.

Solved cases below.
COc1cccc2c1OCC(C(=O)N1CC[C@@H](C)[C@H](c3cc(C(F)F)nc4ncnn34)C1)=C2    11
Cc1cc(C(=O)N2CC[C@@H](C)[C@H](c3cc(C(F)F)nc4ncnn34)C2)c(F)c(C)n1    6.4
C[C@@H]1CCN(C(=O)c2ccc3ncsc3c2)C[C@H]1c1cc(C(F)F)nc2ncnn12    1.5

Alright, here's another compound for you.
Prompt: # return recorded ED50 for input Cc1cc(C(=O)N2CC[C@@H](C)[C@H](c3cc(C(F)F)nc4ncnn34)C2)cc(C(F)(F)F)n1
Completion: 5

###

Target: Human recombinant PDE3A (hPDE3A) (Homo sapiens, UniProt Q14432)
Construct: purchased Scottish Biomedical; host or cells: Sf9 insect cells
Sequence (Q14432 whole entry): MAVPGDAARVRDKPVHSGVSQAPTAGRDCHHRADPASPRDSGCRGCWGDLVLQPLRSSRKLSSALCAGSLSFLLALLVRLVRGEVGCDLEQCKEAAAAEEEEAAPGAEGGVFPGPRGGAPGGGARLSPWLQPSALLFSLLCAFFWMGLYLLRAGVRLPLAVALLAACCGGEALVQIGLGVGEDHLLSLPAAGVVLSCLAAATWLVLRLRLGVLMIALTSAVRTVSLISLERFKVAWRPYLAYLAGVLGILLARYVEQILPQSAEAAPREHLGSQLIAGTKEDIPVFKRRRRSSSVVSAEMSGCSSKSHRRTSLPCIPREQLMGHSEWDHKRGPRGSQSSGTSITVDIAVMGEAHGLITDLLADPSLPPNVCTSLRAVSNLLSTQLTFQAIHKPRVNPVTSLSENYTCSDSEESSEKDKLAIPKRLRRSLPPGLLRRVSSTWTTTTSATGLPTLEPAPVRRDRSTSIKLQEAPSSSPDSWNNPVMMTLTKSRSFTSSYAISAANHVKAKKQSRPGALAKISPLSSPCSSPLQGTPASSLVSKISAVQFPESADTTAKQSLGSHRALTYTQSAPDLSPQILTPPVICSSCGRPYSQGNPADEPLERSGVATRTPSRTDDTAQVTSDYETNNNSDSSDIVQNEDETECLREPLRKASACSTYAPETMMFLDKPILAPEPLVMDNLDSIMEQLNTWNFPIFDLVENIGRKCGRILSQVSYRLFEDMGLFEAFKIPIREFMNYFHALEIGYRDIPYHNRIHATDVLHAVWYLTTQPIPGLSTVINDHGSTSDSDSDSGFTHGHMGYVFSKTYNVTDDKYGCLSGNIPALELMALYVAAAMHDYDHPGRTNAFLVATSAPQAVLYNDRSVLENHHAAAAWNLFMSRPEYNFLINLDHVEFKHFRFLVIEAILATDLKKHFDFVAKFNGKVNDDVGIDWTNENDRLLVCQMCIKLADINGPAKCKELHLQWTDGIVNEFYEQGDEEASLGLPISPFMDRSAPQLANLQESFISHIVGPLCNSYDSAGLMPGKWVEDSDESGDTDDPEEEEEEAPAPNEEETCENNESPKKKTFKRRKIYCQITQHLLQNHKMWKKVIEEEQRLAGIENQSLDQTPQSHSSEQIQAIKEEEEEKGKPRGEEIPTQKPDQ
Assay: In vitro assay PDE3A (SPA, 3H-cAMP hydrolysis);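 note: the method names PDE3A and the table heading PDE3B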
Type: biochemical
Conditions: hPDE3B pIC50; read-out: pIC50 (converted)
Reported IC50 values for the following compounds.
Numbers only; they are read as µM.

Known IC50 results, listed for orientation:
Cc1csc2ccc(C(=O)N3CC[C@@H](C)[C@H](c4cc(C(F)F)nc5ncnn45)C3)nc12    0.269
COc1cc(C(=O)N2[C@H]3CC[C@H](c4cc(C(F)F)nc5ncnn45)[C@@H]2CC3)cc(OC)n1    6.31
Cc1cc([C@@H]2CN(C(=O)c3cc4c(nc3Cl)CCCC4)CC[C@H]2C)n2ncnc2n1    1.1
COc1cccc2c1OCC(C(=O)N1[C@H]3CC[C@H](c4cc(C(F)F)nc5ncnn45)[C@@H]1CC3)=C2    0.794

Prompt: Look up and state reported IC50 for C[C@@H]1CCN(C(=O)c2ccc3c(ccn3C)c2)C[C@H]1c1cc(C(F)F)nc2ncnn12
Completion: 0.0776

###

Target: Human recombinant PDE2A (hPDE2A) (Homo sapiens, UniProt O00408)
Construct: His tag (inferred from metal chelate purification); made in house; host or cells: Sf9 insect cells (baculovirus)
Sequence (O00408 whole entry): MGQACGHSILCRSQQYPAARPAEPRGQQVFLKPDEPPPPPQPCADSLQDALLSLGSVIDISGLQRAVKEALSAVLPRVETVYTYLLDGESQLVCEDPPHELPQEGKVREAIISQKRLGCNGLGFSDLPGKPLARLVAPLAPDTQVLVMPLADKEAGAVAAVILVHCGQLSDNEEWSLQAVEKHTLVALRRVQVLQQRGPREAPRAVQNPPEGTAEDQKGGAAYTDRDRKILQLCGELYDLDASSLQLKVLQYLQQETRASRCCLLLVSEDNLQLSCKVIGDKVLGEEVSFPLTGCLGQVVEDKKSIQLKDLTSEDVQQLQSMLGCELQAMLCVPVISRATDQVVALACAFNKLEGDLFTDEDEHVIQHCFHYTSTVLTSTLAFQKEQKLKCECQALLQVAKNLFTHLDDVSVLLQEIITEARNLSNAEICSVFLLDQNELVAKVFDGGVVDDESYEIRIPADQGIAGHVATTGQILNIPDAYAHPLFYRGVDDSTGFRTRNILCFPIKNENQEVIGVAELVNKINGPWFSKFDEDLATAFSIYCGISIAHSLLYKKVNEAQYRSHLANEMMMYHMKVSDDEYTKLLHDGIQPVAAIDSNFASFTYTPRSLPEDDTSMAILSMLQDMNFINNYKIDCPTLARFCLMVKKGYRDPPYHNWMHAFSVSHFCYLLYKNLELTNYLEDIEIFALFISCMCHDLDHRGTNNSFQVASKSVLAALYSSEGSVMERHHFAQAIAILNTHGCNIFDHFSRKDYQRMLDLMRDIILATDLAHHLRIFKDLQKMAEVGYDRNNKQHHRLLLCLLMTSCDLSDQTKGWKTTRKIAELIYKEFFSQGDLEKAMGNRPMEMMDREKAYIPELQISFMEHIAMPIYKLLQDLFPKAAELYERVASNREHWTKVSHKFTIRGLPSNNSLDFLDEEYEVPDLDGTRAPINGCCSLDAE
Assay: In vitro assay PDE2A (SPA, 3H-cGMP hydrolysis)
Assay type: biochemical
Details: human recombinant PDE2A, 10 μM cGMP substrate; read-out: hPDE2A pIC50 (converted)
Each entry below lists one item and its recorded IC50 value.
# number only, unit nM dropped from output

# count of solved cases: 2
C[C@@H]1CCN(C(=O)c2ccc(OC(F)F)c(F)c2)C[C@H]1c1cc(C(F)F)nc2ncnn12    9.33
C[C@@H]1CCN(C(=O)c2ccc(Cl)cn2)C[C@H]1c1cc(C(F)F)nc2ncnn12    51.3

Prompt: Please supply the value of reported IC50 for the item C[C@@H]1CCN(C(=O)c2cc3c(nc2Cl)CCCC3)C[C@H]1c1cc(C(F)F)nc2ncnn12
Completion: 4.57

Prompt: Write down IC50 measured for item C[C@@H]1CCN(C(=O)c2ccc(O)c(F)c2)C[C@H]1c1cc(C(F)F)nc2ncnn12
Completion: 3.98

###

Biological target: Human recombinant PDE10A (hPDE10A) (Homo sapiens)
Construct: His tag (inferred from metal chelate purification); made in house; host or cells: Sf9 insect cells (baculovirus)
Sequence (Q9Y233 267-1055): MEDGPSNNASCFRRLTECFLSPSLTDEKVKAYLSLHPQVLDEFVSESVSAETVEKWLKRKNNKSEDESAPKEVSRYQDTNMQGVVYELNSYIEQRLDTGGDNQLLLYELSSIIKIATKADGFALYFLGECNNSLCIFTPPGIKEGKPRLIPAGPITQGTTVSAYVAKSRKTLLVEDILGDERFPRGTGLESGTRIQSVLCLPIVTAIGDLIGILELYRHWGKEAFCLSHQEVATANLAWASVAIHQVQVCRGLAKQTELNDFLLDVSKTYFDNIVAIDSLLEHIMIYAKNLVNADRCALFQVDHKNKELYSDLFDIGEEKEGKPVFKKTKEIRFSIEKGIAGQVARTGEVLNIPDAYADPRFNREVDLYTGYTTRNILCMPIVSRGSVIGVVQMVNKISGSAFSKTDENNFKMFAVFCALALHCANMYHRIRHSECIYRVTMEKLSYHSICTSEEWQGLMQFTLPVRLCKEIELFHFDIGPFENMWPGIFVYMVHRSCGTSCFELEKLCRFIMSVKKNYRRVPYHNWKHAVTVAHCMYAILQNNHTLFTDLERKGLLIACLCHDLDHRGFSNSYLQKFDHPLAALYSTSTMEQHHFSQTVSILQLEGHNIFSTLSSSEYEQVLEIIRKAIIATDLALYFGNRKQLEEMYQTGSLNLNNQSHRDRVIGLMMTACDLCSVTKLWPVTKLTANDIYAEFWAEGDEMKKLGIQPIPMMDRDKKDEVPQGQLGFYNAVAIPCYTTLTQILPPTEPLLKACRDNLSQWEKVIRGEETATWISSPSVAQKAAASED
Assay: In vitro assay PDE10A, human clone (SPA, 3H-cAMP hydrolysis)
Assay type: biochemical
Conditions: human clone by default (no (r) mark); read-out: hPDE10A2 or rPDE10A2 Emax
Assign class by Emax: not lower than 90% means 1 (yes); lower than 90% means 0 (no).

O=C(c1cc(OC(F)F)cc(C2CC2)c1)N1[C@H]2CC[C@H](c3cc(C(F)F)nc4ncnn34)[C@@H]1CC2 [Compound 352]    1 (yes)
C[C@@H]1CCN(C(=O)c2cnc3c(Cl)cccc3c2)C[C@H]1c1cc(C(F)F)nc2ncnn12 [Compound 329]    1 (yes)
COc1cc(C(=O)N2CC[C@@H](C)[C@H](c3cc(C(F)F)nc4ncnn34)C2)cc(OC)n1 [Compound 284]    1 (yes)
O=C(c1ccc2c(c1)OC(F)(F)O2)N1[C@H]2CC[C@H](c3cc(C(F)F)nc4ncnn34)[C@@H]1CC2 [Compound 350]    0 (no)

Prompt: Hi team, for CCCOc1cccnc1C(=O)N1CC[C@@H](C)[C@H](c2cc(C(F)F)nc3ncnn23)C1 [Compound 246] , is the recorded Emax at or above 90%?
Completion: 0 (no)

Prompt: Check if Emax >= 90% (inclusive). Item: Cn1ccc2cc(C(=O)N3[C@H]4CC[C@H](c5cc(C(F)F)nc6ncnn56)[C@@H]3CC4)cc(F)c21 [Compound 374]
Completion: 1 (yes)

Prompt: Is reported Emax greater than or equal to 90% here: Cc1nc2ccc(C(=O)N3[C@H]4CC[C@H](c5cc(C(F)F)nc6ncnn56)[C@@H]3CC4)cc2o1 [Compound 303]
Completion: 1 (yes)

###

Molecular target: Human recombinant PDE3A (hPDE3A) (Homo sapiens, UniProt Q14432)
Construct: purchased Scottish Biomedical; host or cells: Sf9 insect cells
Assay: In vitro assay PDE3A (SPA, 3H-cAMP hydrolysis);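 note: the method names PDE3A and the table heading PDE3B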
Format: biochemical
Conditions: read-out: hPDE3B Emax; read-out: Emax
Method: Human recombinant PDE3A (hPDE3A) was supplied as a partially purified insect cell lysate by Scottish Biomedical, it was cloned from human brain and expressed in Sf9 cells. Tested compounds were dissolved and diluted in 100% DMSO to a concentration 100 fold of the final concentration in the assay. […] After sedimentation of the beads during 30 min the radioactivity was measured in a Perkin Elmer Topcount scintillation counter and results were expressed as cpm. […]
Emax for assorted compounds
Note: unit % is implicit; provide only the numeric part.

Some solved entries appear below for comparison.
Cc1nc2cc(C(=O)N3CC[C@@H](C)[C@H](c4cc(C(F)F)nc5ncnn45)C3)ccc2o1    87
O=C(c1ccc2occc2c1)N1CCC[C@](F)(c2cc(C(F)F)nc3ncnn23)C1 (single isomer, unassigned)    64

Prompt: Consider the compound COc1ncc(C)cc1C(=O)N1CC[C@@H](C)[C@H](c2cc(C(F)F)nc3ncnn23)C1 and give its recorded Emax.
Completion: 54

Prompt: Given the compound COc1nc(C2CC2)cc(C(=O)N2CC[C@@H](C)[C@H](c3cc(C(F)F)nc4ncnn34)C2)c1F , write its reported Emax.
Completion: 93

Prompt: Recall and state the measured Emax for Cc1cc([C@@H]2CN(C(=O)c3ccc4occ(C)c4c3)CC[C@H]2C)n2ncnc2n1 .
Completion: 97

Prompt: Read off the recorded Emax for C[C@@H]1CCN(C(=O)c2ccnn2C)C[C@H]1c1cc(C(F)F)nc2ncnn12
Completion: 21

Prompt: Return Emax for the following compound: Cc1c(C(=O)N2[C@H]3CC[C@H](c4cc(C(F)F)nc5ncnn45)[C@@H]2CC3)oc2ccccc12
Completion: 96

###

Target: Human recombinant PDE2A (hPDE2A) (Homo sapiens)
Construct: His tag (inferred from metal chelate purification); made in house; host or cells: Sf9 insect cells (baculovirus)
Experiment: In vitro assay PDE2A (SPA, 3H-cGMP hydrolysis)
Type: biochemical
Details: human recombinant PDE2A; read-out: hPDE2A Emax
reported_property: Emax (%)
Your answer is read as %, so omit the unit and give the number.

Field: example entries. Status: answers known.
C[C@@H]1CCN(C(=O)c2cccc3c2ncn3C)C[C@H]1c1cc(C(F)F)nc2ncnn12    101
Cc1c(C(=O)N2CC[C@@H](C)[C@H](c3cc(C(F)F)nc4ncnn34)C2)oc2ccccc12    100
Cc1cc([C@@H]2CN(C(=O)c3cc4cccnc4nc3C(F)(F)F)CC[C@H]2C)n2ncnc2n1    100
COc1cc(C(=O)N2CC[C@@H](C)[C@H](c3cc(C(F)F)nc4ncnn34)C2)ccc1C1CC1    101
C[C@@H]1CCN(C(=O)c2cccc(C#N)c2)C[C@H]1c1cc(C(F)F)nc2ncnn12    98

Prompt: Give the reported value of Emax for this record: Cc1cc(C(=O)N2CC[C@@H](C)[C@H](c3cc(C(F)F)nc4ncnn34)C2)cc(C(C)C)n1
Completion: 101

Prompt: Give the measured Emax for C[C@@H]1CCN(C(=O)c2cc(Cl)ncc2Cl)C[C@H]1c1cc(C(F)F)nc2ncnn12
Completion: 99

Prompt: Note down Emax recorded for Cc1csc(C(=O)N2CC[C@@H](C)[C@H](c3cc(C(F)F)nc4ncnn34)C2)c1Cl
Completion: 100

Prompt: Please indicate Emax recorded for C[C@@H]1CCN(C(=O)c2ccc3nccn3c2)C[C@H]1c1cc(C(F)F)nc2ncnn12
Completion: 101

Prompt: Give the value of Emax reported for the following: COc1cc(C(=O)N2CC[C@@H](C)[C@H](c3cc(C(F)F)nc4ncnn34)C2)nc2ccccc12
Completion: 100

Prompt: Tell me its Emax given COc1ccc(C(=O)N2CC[C@@H](C)[C@H](c3cc(C(F)F)nc4ncnn34)C2)nc1 as the entry.
Completion: 99
